- TEST PROTOCOL: Physical stability evaluation under stress conditions
- Format: physicochemical
- SETTINGS: Initial
OBSERVATION TYPE: Purity: Total related material (%)

>>> print(df.to_string())
                                   compound  units  quantitative_readout
0  C[C@@H]1CN(C(=O)CC#N)CC=C1c1cc(NC(=O)C2CC2)nc2[nH]ccc12 [Example 1]      %                  0.66
1  C[C@@H]1CN(C(=O)CC#N)CC=C1c1cc(NC(=O)C2CC2)nc2[nH]ccc12 [Example 4]      %                  1.13
2  C[C@@H]1CN(C(=O)CC#N)CC=C1c1cc(NC(=O)C2CC2)nc2[nH]ccc12 [Example 3]      %                  0.41
3  C[C@@H]1CN(C(=O)CC#N)CC=C1c1cc(NC(=O)C2CC2)nc2[nH]ccc12 [Example 2]      %                  0.56
